Data origin, for the record: patent US6576271B2

molecular target: PGHS-1 (COX-1) (Ovis aries); construct: purchased Oxford Biomedical Research (Oxford, Mich., USA); assay: COX-1 inhibition by flavonoids and isoflavonoids, O2 uptake (Example 5); assay type: biochemical
Consider the following molecules and their measured IC50 readings.
Report only the number, with the unit µM understood.

Prompt: Lab note: need IC50 with PGHS-1 (COX-1) (Ovis aries) for entry `O=c1c(-c2ccc(O)cc2)coc2cc(O)ccc12` , please look it up.
Response: 400

Next, consider the following molecule.
Prompt: Return IC50 measured with PGHS-1 (COX-1) (Ovis aries) given this molecule: `O=c1c(-c2ccc(O)cc2)coc2cc(O)cc(O)c12`
Response: 80

====

target: PGHS-1 (COX-1) (Ovis aries, UniProt P05979); construct: purchased Oxford Biomedical Research (Oxford, Mich., USA); assay: COX-1 inhibition by flavonoids and isoflavonoids, O2 uptake (Example 5); format: biochemical; conditions: mean of triplicate, FIGS. 10 and 11; read-out: IC50 for inhibition of PGHS-1 enzyme (COX-1)
Sequence (P05979 25-600): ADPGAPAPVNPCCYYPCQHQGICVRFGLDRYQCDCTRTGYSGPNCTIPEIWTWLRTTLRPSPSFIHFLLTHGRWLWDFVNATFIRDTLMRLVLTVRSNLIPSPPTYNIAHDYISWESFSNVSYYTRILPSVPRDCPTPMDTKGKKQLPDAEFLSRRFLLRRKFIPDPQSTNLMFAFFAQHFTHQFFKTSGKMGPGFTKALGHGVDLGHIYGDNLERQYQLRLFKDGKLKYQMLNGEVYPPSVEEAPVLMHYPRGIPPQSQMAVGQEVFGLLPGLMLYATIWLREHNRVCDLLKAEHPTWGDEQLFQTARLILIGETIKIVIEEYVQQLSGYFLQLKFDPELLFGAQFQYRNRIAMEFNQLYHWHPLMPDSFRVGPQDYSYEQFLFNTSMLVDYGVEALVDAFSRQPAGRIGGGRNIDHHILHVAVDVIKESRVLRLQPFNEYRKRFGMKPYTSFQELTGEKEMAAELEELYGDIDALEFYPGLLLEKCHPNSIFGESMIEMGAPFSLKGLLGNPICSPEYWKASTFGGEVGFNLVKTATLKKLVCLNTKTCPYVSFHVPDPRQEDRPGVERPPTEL
pIC50: −log10 of the molar value.
Recorded Metric: pIC50

Prompt: # input molecule: `O=c1cc(-c2ccc(O)c(O)c2)oc2cc(O)cc(O)c12` ; wanted: its pIC50
Response: 3.52

P. COc1ccc(-c2coc3cc(O)cc(O)c3c2=O)cc1
Q. O=c1c(O)c(-c2ccc(O)cc2)oc2cc(O)cc(O)c12
Prompt: Just curious, which one has the larger pIC50 reading, P or Q ? # respond with the chosen item's label
Response: Q

====

biological target: PGHS-1 enzyme (Ovis aries, UniProt P05979); construct: a microsomal fraction of ram seminal vesicles containing PGHS-1 enzyme; tissue Oxford Biomedical Research (Oxford, Mich.); host or cells: ram seminal vesicles (microsomal fraction); assay: Cyclooxygenase activity of PGHS-1, initial rate of O2 uptake (Example 4); format: biochemical, ram; settings: inhibition of cyclooxygenase activity, FIG. 7
Sequence (P05979 25-600): as above
Recorded Metric: IC50 (µM)
# value in µM; strip the unit string

Prompt: Looking for the measured IC50 of Oc1cc(O)c2cc(O)c(-c3ccc(O)c(O)c3)[o+]c2c1 [cyanidin] , can you help?
Response: 90
